Reference source for all entries: patent US10081624B2

SYSTEM_NAME: HDAC6 enzyme (Homo sapiens)
Construct: prepared by transducing full length HDAC1 and HDAC6 genes into Sf-9 insect cells; GST; purchased SignalChem; host or cells: Sf-9 insect cells
Sequence (Q9UBN7 1-1215): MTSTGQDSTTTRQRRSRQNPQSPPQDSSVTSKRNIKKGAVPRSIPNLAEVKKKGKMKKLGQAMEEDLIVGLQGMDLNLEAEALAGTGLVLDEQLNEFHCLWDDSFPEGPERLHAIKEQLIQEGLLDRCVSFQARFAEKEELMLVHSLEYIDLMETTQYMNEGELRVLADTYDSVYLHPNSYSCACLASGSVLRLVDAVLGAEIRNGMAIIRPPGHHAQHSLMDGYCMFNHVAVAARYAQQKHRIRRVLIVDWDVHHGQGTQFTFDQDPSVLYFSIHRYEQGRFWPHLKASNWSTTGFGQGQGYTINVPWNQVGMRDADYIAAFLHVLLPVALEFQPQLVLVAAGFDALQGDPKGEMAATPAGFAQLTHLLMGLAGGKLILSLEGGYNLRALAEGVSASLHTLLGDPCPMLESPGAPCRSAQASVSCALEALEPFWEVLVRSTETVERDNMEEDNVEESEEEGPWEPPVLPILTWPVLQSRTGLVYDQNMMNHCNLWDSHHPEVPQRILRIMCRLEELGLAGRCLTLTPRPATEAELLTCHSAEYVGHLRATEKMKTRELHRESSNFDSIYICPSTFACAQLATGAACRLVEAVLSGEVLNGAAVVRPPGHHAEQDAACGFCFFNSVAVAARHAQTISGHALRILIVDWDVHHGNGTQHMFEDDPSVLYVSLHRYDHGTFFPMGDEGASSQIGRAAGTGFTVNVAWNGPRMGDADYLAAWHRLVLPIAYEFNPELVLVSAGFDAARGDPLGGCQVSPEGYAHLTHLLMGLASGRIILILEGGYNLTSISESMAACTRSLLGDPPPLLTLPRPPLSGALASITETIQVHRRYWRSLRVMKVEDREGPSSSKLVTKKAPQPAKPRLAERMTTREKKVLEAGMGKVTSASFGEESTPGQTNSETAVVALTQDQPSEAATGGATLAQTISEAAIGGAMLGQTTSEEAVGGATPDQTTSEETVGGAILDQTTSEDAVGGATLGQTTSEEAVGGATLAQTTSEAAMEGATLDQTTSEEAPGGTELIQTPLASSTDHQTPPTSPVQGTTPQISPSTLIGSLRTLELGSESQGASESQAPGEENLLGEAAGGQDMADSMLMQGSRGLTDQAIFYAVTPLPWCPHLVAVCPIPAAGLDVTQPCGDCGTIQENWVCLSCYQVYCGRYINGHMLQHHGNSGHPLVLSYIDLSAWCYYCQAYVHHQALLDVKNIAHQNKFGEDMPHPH
EXPERIMENT_NOTES: HDAC6 enzyme inhibitory assay (HDAC-Glo I/II Assay kit)
Type: biochemical
DETAILS: 1 μM test compound; read-out: HDAC6 inhibitory rate (%) (1 μM)
The entries below are paired with their reported inhibition at 1 µM.
READOUT_NAME: inhibition at 1 µM (%)

>  <COMPOUND>
CC(C)(C(=O)N1CCOC[C@@H]1CNC(=O)c1ccc(-c2noc(C(F)(F)F)n2)cn1)c1ccccc1

>  <NUMERIC_RESULT>
98

$$$$
>  <COMPOUND>
Cc1oncc1C(=O)N1CCOC[C@@H]1CNC(=O)c1ccc(-c2noc(C(F)(F)F)n2)s1

>  <NUMERIC_RESULT>
100

$$$$
>  <COMPOUND>
O=C(NCC1COCCN1C(=O)c1cccnc1)c1ccc(-c2noc(C(F)(F)F)n2)cc1 (stereo not drawn)

>  <NUMERIC_RESULT>
97

$$$$
>  <COMPOUND>
O=C(NCC1COCCN1C(=O)c1ccccc1)c1cc(-c2noc(C(F)(F)F)n2)cs1 (stereo not drawn)

>  <NUMERIC_RESULT>
52

$$$$
>  <COMPOUND>
O=C(NCC1COCCN1C(=O)c1cccc(F)c1)c1ccc(-c2noc(C(F)(F)F)n2)cc1 (stereo in doubt) [Example 113]

>  <NUMERIC_RESULT>
97

$$$$
>  <COMPOUND>
N#Cc1cccc(C(=O)N2CCOC[C@@H]2CNC(=O)c2ccc(-c3noc(C(F)(F)F)n3)cn2)c1

>  <NUMERIC_RESULT>
95

$$$$
>  <COMPOUND>
Cn1ccnc1C(=O)N1CCOCC1CNC(=O)c1ccc(-c2noc(C(F)(F)F)n2)s1 (stereo not drawn)

>  <NUMERIC_RESULT>
77

$$$$
>  <COMPOUND>
O=C(NC[C@@H]1COCCN1C(=O)C1CCCC1)c1ccc(-c2noc(C(F)(F)F)n2)cc1

>  <NUMERIC_RESULT>
96

$$$$
>  <COMPOUND>
O=C(NC[C@H]1COCCN1C(=O)N1CCCC1CCO)c1ccc(-c2noc(C(F)(F)F)n2)cc1 (stereo partly drawn)

>  <NUMERIC_RESULT>
99

$$$$
>  <COMPOUND>
O=C(NCC1COCCN1C(=O)C1CCCCC1)c1ccc(-c2noc(C(F)(F)F)n2)cc1 (stereo not drawn)

>  <NUMERIC_RESULT>
102

$$$$
>  <COMPOUND>
Cn1nc2c(c1C(=O)N1CCOCC1CNC(=O)c1ccc(-c3noc(C(F)(F)F)n3)cc1)CCCC2 (stereo in doubt)

>  <NUMERIC_RESULT>
95

$$$$
>  <COMPOUND>
COc1cccc(C(=O)N2CCOCC2CNC(=O)c2ccc(-c3noc(C(F)(F)F)n3)cc2)c1 (stereo not drawn) [Example 29]

>  <NUMERIC_RESULT>
99

$$$$
>  <COMPOUND>
O=C(NC[C@H]1COCCN1C(=O)C(F)(F)c1ccccc1)c1ccc(-c2noc(C(F)(F)F)n2)s1

>  <NUMERIC_RESULT>
101

$$$$
>  <COMPOUND>
O=C(NC[C@H]1COCCN1C(=O)N1CCCCC1)c1ccc(-c2noc(C(F)(F)F)n2)cc1

>  <NUMERIC_RESULT>
98

$$$$
>  <COMPOUND>
CN(CC1COCCN1C(=O)c1ccccc1)C(=O)c1ccc(-c2noc(C(F)(F)F)n2)cc1 (stereo not drawn)

>  <NUMERIC_RESULT>
42

$$$$
>  <COMPOUND>
O=C(NCC1COCCN1C(=O)c1cc2ccccc2o1)c1ccc(-c2noc(C(F)(F)F)n2)cc1 (stereo not drawn)

>  <NUMERIC_RESULT>
98

$$$$
>  <COMPOUND>
O=C(NC[C@@H]1COCCN1C(=O)C1CC1)c1ccc(-c2noc(C(F)(F)F)n2)cc1

>  <NUMERIC_RESULT>
94

$$$$
>  <COMPOUND>
O=C(NC[C@H]1COCCN1C(=O)c1cc(F)cc(F)c1)c1ccc(-c2noc(C(F)(F)F)n2)cn1

>  <NUMERIC_RESULT>
99

$$$$
>  <COMPOUND>
O=C(O)c1cccc(C(=O)N2CCOC[C@@H]2CNC(=O)c2ccc(-c3noc(C(F)(F)F)n3)cc2)c1

>  <NUMERIC_RESULT>
89

$$$$
>  <COMPOUND>
Cc1nonc1C(=O)N1CCOCC1CNC(=O)c1ccc(-c2noc(C(F)(F)F)n2)s1 (stereo not drawn)

>  <NUMERIC_RESULT>
98

$$$$
>  <COMPOUND>
O=C(NC[C@H]1COCCN1C(=O)N1CCC[C@H]1CO)c1ccc(-c2noc(C(F)(F)F)n2)cc1

>  <NUMERIC_RESULT>
84

$$$$
>  <COMPOUND>
O=C(NCC1COCCN1C(=O)c1ccc(F)cc1)c1ccc(-c2noc(C(F)(F)F)n2)cc1 (stereo not drawn)

>  <NUMERIC_RESULT>
99

$$$$
>  <COMPOUND>
Cc1cc(C(=O)N2CCOC[C@H]2CNC(=O)c2ccc(-c3noc(C(F)(F)F)n3)cc2)n(C)n1

>  <NUMERIC_RESULT>
91

$$$$
>  <COMPOUND>
O=C(NC[C@H]1COCCN1C(=O)C1CCOC1)c1ccc(-c2noc(C(F)(F)F)n2)cc1 (stereo partly drawn)

>  <NUMERIC_RESULT>
94

$$$$
>  <COMPOUND>
Cc1noc(C)c1C(=O)N1CCOC[C@@H]1CNC(=O)c1ccc(-c2noc(C(F)(F)F)n2)cc1

>  <NUMERIC_RESULT>
100

$$$$
>  <COMPOUND>
O=C(NC[C@H]1COCCN1C(=O)N1CCCC1c1cccnc1)c1ccc(-c2noc(C(F)(F)F)n2)cc1 (stereo partly drawn)

>  <NUMERIC_RESULT>
76

$$$$
>  <COMPOUND>
O=C(NC[C@@H]1COCCN1C(=O)CC1CC1)c1ccc(-c2noc(C(F)(F)F)n2)cc1

>  <NUMERIC_RESULT>
95

$$$$
>  <COMPOUND>
O=C(NC[C@@H]1COCCN1C(=O)C1CCc2ccccc2O1)c1ccc(-c2noc(C(F)(F)F)n2)cc1 (stereo partly drawn)

>  <NUMERIC_RESULT>
90

$$$$
>  <COMPOUND>
O=C(NC[C@H]1COCCN1C(=O)c1ccc(OCC(F)(F)F)nc1)c1ccc(-c2noc(C(F)(F)F)n2)cc1

>  <NUMERIC_RESULT>
99

$$$$
>  <COMPOUND>
O=C(NC[C@H]1COCCN1C(=O)C1CCCCC1)c1ccc(-c2noc(C(F)(F)F)n2)cc1

>  <NUMERIC_RESULT>
98

$$$$
